Target: MAGI2_5, Q86UL8
Sequence (Q86UL8 915-1017): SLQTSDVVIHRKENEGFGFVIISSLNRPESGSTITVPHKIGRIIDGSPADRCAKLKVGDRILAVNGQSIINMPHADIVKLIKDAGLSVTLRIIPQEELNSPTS
Assay: holdup assay
Set-up: key: below the threshold = too weak to quantify, mostly under pKd 3.1 to 4
Details: plain residues with an end cap or a label only (N-terminal biotin on a linker: ado-ado)
reported property: pKd

>>> df
                       binder       reported_value
0  ELKAEDEVQI [DCHS2, Q6V1P9]  below the threshold
1   SGDGKTSVWI [GJC1, P36383]  below the threshold
2  SSSVNVSSNL [CXCR1, P25024]  below the threshold
3   THREVKFTSL [CD46, P15529]                 3.84

These measurements were taken from paper PMC9482650.
